- Test system: E. coli strain W3110
- method_notes: Synergy assays: Biolog chemical sensitivity panels with Group IB metal, coefficient of drug interaction (CDI) from relative growth
- Type: cell-based
- condition_details: Copper 0.1 mM; biocide concentration 4 of 4
property: CDI

[in] Please give the measured CDI for this molecule: "O=C(O)CN(CCOCCOCCN(CC(=O)O)CC(=O)O)CC(=O)O"
[out] 1.06

[in] Please give the measured CDI for this molecule: "c1cnc2c(c1)ccc1cccnc12"
[out] Tox

[in] Please give the measured CDI for this molecule: "c1ccc(-c2ccccn2)nc1"
[out] Tox

[in] Please give the measured CDI for this molecule: "CCCCc1ccc(C(=O)O)nc1"
[out] Tox
